Please provide measured pIC50 for the entries that follow.
Tested on: NCI-H1623;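 note: cell viability assay used as the read-out for growth inhibition of NCI-H1623 cells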
Experiment Notes: cells
Format: functional, cell-based
Condition Description: Homo sapiens
Description: SANGER: Inhibition of human NCI-H1623 cell growth in a cell viability assay.
pIC50: −log10 of the molar value.

Tell me measured pIC50 for O=c1cc(N2CCOCC2)oc2c(-c3cccc4c3sc3ccccc34)cccc12 please.
< 5.70

Tell me measured pIC50 for C/C=C(/C)C(=O)O[C@H]1C(C)=C2[C@H]([C@@H]1OC(=O)CCCCCCC)[C@@](C)(OC(C)=O)C[C@H](OC(=O)CCC)[C@@]1(O)[C@H]2OC(=O)[C@@]1(C)O please.
< 6.29

Tell me measured pIC50 for CCCS(=O)(=O)Nc1ccc(F)c(C(=O)c2c[nH]c3ncc(Cl)cc23)c1F please.
< 5.00

====

Tested on: NUGC-3;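 note: growth inhibition of human NUGC-3 cells, read out with a cell viability assay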
Experiment Notes: cells
Format: functional, cell-based
Condition Description: Homo sapiens
Description: SANGER: Inhibition of human NUGC-3 cell growth in a cell viability assay.
pIC50: −log10 of the molar value.
Property Measured: pIC50

Tell me measured pIC50 for O=c1cc(N2CCOCC2)oc2c(-c3cccc4c3sc3ccccc34)cccc12 please.
< 5.70

Tell me measured pIC50 for CC(O)(CS(=O)(=O)c1ccc(F)cc1)C(=O)Nc1ccc(C#N)c(C(F)(F)F)c1 (stereo not given) [BICALUTAMIDE] please.
< 5.99

Tell me measured pIC50 for C[C@]1(c2nc3c(C(N)=O)cccc3[nH]2)CCCN1 please.
< 5.30

Tell me measured pIC50 for N#C/C(=C1/Nc2ccccc2S1)c1ccnc(NCCc2cccnc2)n1 please.
< 5.10

Tell me measured pIC50 for C[C@]12O[C@H](C[C@]1(O)CO)n1c3ccccc3c3c4c(c5c6ccccc6n2c5c31)CNC4=O please.
< 5.70

====

Test system: NCI-H209;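 note: growth inhibition of human NCI-H209 cells, measured by a cell viability assay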
Experiment Notes: cells
Format: functional, cell-based
Condition Description: Homo sapiens
Description: SANGER: Inhibition of human NCI-H209 cell growth in a cell viability assay.
Property Measured: IC50

Tell me measured IC50 for CO[C@@]12[C@H](COC(N)=O)C3=C(C(=O)C(C)=C(N)C3=O)N1C[C@@H]1N[C@@H]12 [MITOMYCIN] please.
< 62.5 nM

Tell me measured IC50 for Cc1nc(Nc2ncc(C(=O)Nc3c(C)cccc3Cl)s2)cc(N2CCN(CCO)CC2)n1 [DASATINIB] please.
> 1280 nM

Tell me measured IC50 for CC(=O)c1c(C)c2cnc(Nc3ccc(N4CCNCC4)cn3)nc2n(C2CCCC2)c1=O [PALBOCICLIB] please.
> 4000 nM

Tell me measured IC50 for CC(O)(CS(=O)(=O)c1ccc(F)cc1)C(=O)Nc1ccc(C#N)c(C(F)(F)F)c1 (centres undefined) [BICALUTAMIDE] please.
> 1020 nM

====

Please provide measured IC50 for the entries that follow.
Tested on: BE-13;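 note: growth inhibition of human BE-13 cells, measured with a cell viability assay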
Experiment Notes: cells
Format: functional, cell-based
Condition Description: Homo sapiens
Description: SANGER: Inhibition of human BE-13 cell growth in a cell viability assay.

Tell me measured IC50 for O=c1cc(N2CCOCC2)oc2c(-c3cccc4c3sc3ccccc34)cccc12 please.
> 2 µM

Tell me measured IC50 for Cc1[nH]c(/C=C2\C(=O)Nc3ccc(S(=O)(=O)Cc4c(Cl)cccc4Cl)cc32)c(C)c1C(=O)N1CCC[C@@H]1CN1CCCC1 please.
> 2 µM

Tell me measured IC50 for COc1cc(C)c(Sc2cnc(NC(=O)c3ccc(CNC(C)C(C)(C)C)cc3)s2)cc1C(=O)N1CCN(C(C)=O)CC1 (stereo unspecified) please.
> 10.2 µM

Tell me measured IC50 for O=c1[nH]c2ccccc2n1C1CCN(Cc2ccc(-c3nc4cc5[nH]cnc5cc4nc3-c3ccccc3)cc2)CC1 please.
> 2.56 µM

Tell me measured IC50 for Cc1nc(Nc2ncc(C(=O)Nc3c(C)cccc3Cl)s2)cc(N2CCN(CCO)CC2)n1 please.
> 1.28 µM

Tell me measured IC50 for CCNC(=O)c1noc(-c2cc(C(C)C)c(O)cc2O)c1-c1ccc(CN2CCOCC2)cc1 please.
> 0.256 µM

Where these numbers come from: ChEMBL document CHEMBL1201861
